# assay overview: Cell Viability - NIH 3T3 (AID 541);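 note: cells exposed to compound for 40 hours; nearly all actives have a fitted effect of over 25% in size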
# recorded conditions: NIH 3T3 cell viability, qHTS
Inconclusive results are not listed. Calls of active or inactive are those of the source. Calls come from the whole dose curve; as a rule, active = well fitted cell-killing curve with a large enough effect; inconclusive = small, poorly fitted or top-dose-only effect; inactive = flat fitted curve, though single readings scatter.
Use one of these outcomes when replying: active, inactive

[
  {
    "compound": "O=[N+]([O-])C(Br)Br",
    "category": "active"
  },
  {
    "compound": "C(=NC1CCCCC1)=NC1CCCCC1",
    "category": "active"
  },
  {
    "compound": "ClC1=C(Cl)C2(Cl)C3C(Cl)C(Cl)CC3C1(Cl)C2(Cl)Cl (stereo not drawn)",
    "category": "inactive"
  },
  {
    "compound": "Oc1c(Br)c(Br)c(Br)c(Br)c1Br",
    "category": "inactive"
  },
  {
    "compound": "N#CC(Cl)Cl",
    "category": "inactive"
  }
]

Incoming: Hi team, can someone confirm the assay call for c1ccc2cc3c(cc2c1)-c1cccc2cccc-3c12 ?
Outgoing: inactive

Incoming: Hi team, can someone confirm the assay call for N#CSCSC#N ?
Outgoing: active

Incoming: Hi team, can someone confirm the assay call for Clc1ccc(C(c2ccc(Cl)cc2)C(Cl)Cl)cc1 ?
Outgoing: inactive

====

# assay overview: qHTS assay for small molecule agonists of the antioxidant response element (ARE) signaling pathway measured by Nrf2-dependant transcriptional activity - cell viability counter screen (AID 720653); note: % is set by controls: 0 for no effect and ±100 for the full control effect
# recorded conditions: ARE-bla HepG2 viability, CellTiter-Glo ATP luminescence, 16 h; hits give low values
Results filed as inconclusive are left out.
Reported max response is given for each of the following compounds.
Express it in %; write the number only.

Worked cases, answers included:
[
  {
    "compound": "COc1ccc(O)c(C(C)(C)C)c1",
    "max response, %": 1.24
  },
  {
    "compound": "[CH3][Sn]([Cl])([Cl])[Cl]",
    "max response, %": -16
  },
  {
    "compound": "CSc1nc(NC(C)C)nc(NC(C)C)n1",
    "max response, %": 9.37
  },
  {
    "compound": "CC(C)CC(C)Nc1ccc(Nc2ccccc2)cc1 (stereo unspecified)",
    "max response, %": -3.35
  },
  {
    "compound": "Cc1nc(N(C)C)nc(OC(=O)N(C)C)c1C",
    "max response, %": -25.3
  }
]

Incoming: Find the recorded max response belonging to CC(Oc1cc(Cl)c(Cl)cc1Cl)C(=O)O (stereo unspecified) and report it.
Outgoing: 15.3

Incoming: Find the recorded max response belonging to O=S(=O)(c1ccc(Cl)cc1)c1cc(Cl)c(Cl)cc1Cl and report it.
Outgoing: -29.2

Incoming: Find the recorded max response belonging to CC(C)[C@H](C(=O)O[C@H](C#N)c1cccc(Oc2ccccc2)c1)c1ccc(Cl)cc1 and report it.
Outgoing: 6.41

Incoming: Find the recorded max response belonging to COC[C@H](C)N(C(=O)CCl)c1c(C)csc1C and report it.
Outgoing: 0.25

Incoming: Find the recorded max response belonging to Nc1nc(N)nc(N)n1 and report it.
Outgoing: -2.99

Incoming: Find the recorded max response belonging to CCSCc1ccccc1OC(=O)NC and report it.
Outgoing: -3.42

Incoming: Find the recorded max response belonging to O=C(Nc1ccccc1)Nc1cnns1 and report it.
Outgoing: -2.01

Incoming: Find the recorded max response belonging to CC(C)OC(=O)C(O)(c1ccc(Br)cc1)c1ccc(Br)cc1 and report it.
Outgoing: -7.97

Incoming: Find the recorded max response belonging to CCS(=O)(=O)c1cccnc1S(=O)(=O)NC(=O)Nc1nc(OC)cc(OC)n1 and report it.
Outgoing: 15.3

Incoming: Find the recorded max response belonging to CC(C)Oc1cc(-n2nc(C(C)(C)C)oc2=O)c(Cl)cc1Cl and report it.
Outgoing: -16

Incoming: Find the recorded max response belonging to COP(=S)(OC)Oc1ccc([N+](=O)[O-])c(C)c1 and report it.
Outgoing: -3.17
